Molecular target: UniProt:P12268
Test: Inhibition of IMPDH2
Property: log10 IC50 (log10 of the value in nM)
Could you please treat all values as log10 of IC50 in nM?

As a guide, the following entries are already answered.
[
  {
    "Compound Structure": "Cn1cc(C#N)c2ccc(NC(=O)Nc3ccccc3)cc21",
    "log10 IC50": 2.86
  },
  {
    "Compound Structure": "O=C(NOCc1ccccc1)Nc1ccc2c(-c3ccncc3)c[nH]c2c1",
    "log10 IC50": 1.88
  },
  {
    "Compound Structure": "Cn1cc(C#N)c2ccc(NS(=O)(=O)Cc3ccccc3)cc21",
    "log10 IC50": 4.32
  },
  {
    "Compound Structure": "CCOC(=O)c1ccc2c(-c3ccncc3)c[nH]c2c1",
    "log10 IC50": 2.77
  }
]

Lab note: next molecule to report on.
In: Please report the recorded log10 IC50 for Cc1[nH]c2cc(NC(=O)N(C)c3ccccc3)ccc2c1-c1ccncc1 .
Out: 2.11

Reference for the values: ChEMBL document CHEMBL1147021
